Examples of molecules with documented viability, T/C follow.
Tested on: 596521-263-R-J1-PDC complex spheroids, viability % of control;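 also: spheroids exposed to drugs for 7 days before viability reading; 100% = DMSO vehicle control viability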
Assay: Anticancer human tumor 596521-263-R-J1-PDC patient-derived soft tissue sarcoma cell line growth inhibition [GQUAD]
Details: second compound 0.1 µM; first compound 0.1 µM; hits give low values
Excerpt: DNA G-quadruplex Stabilizer Agents in Combinations in Complex Spheroids A high-throughput screen of multi-cell type tumor spheroids was designed to identify active combinations of DNA G-quadruplex stabilizer agents and targeted small molecules. […] Compounds. […] If the clinical Cmax for an agent had not been determined, the highest concentration tested was 10 microM. […]
Express your answer in %, writing the number without its unit.

Sample records with viability, T/C:
CC(C)n1c(=O)n(C)c2cnc3cc(F)c(-c4ccc(OCCCN5CCCCC5)nc4)cc3c21 + Cc1cnc(CNC(=O)c2c(=O)c3ccc(N4CCCN(C)CC4)nc3n3c2sc2ccccc23)cn1 ... 61.3
CC(C)(O)C1CCC(Nc2ccc3ncc(-c4cccc(C(F)(F)F)c4)n3n2)CC1 (stereo unspecified) + Cc1[nH]c2ccc(F)cc2c1-c1nc2c3cccnc3c3ncccc3c2[nH]1 ... 92.5
COc1ccc([C@@H](O)c2cc(-c3ncnc4cc(N5CCOCC5)ccc34)c(F)cc2Cl)nn1 + Cc1cnc(CNC(=O)c2c(=O)c3ccc(N4CCCN(C)CC4)nc3n3c2sc2ccccc23)cn1 ... 88.4
C#Cc1c(F)ccc2cc(O)cc(-c3ncc4c(N5CC6CCC(C5)N6)nc(OCC56CCCN5CC(F)C6)nc4c3F)c12 (stereo unspecified) + CN(C)c1ccc(Nc2c3ccc(NC(=O)CCN4CCCC4)cc3nc3cc(NC(=O)CCN4CCCC4)ccc23)cc1 ... 96.1
O=c1[nH]cc(F)c(=O)[nH]1 + Cc1[nH]c2ccc(F)cc2c1-c1nc2c3cccnc3c3ncccc3c2[nH]1 ... 101
CC1COCCN1c1cc(C2(S(C)(=N)=O)CC2)nc(-c2ccnc3[nH]ccc23)n1 (stereo unspecified) + Cc1cnc(CNC(=O)c2c(=O)c3ccc(N4CCCN(C)CC4)nc3n3c2sc2ccccc23)cn1 ... 93.5
O=C(NO)c1cnc(N2CCN(S(=O)(=O)c3ccc4ccccc4c3)CC2)nc1 + Cc1[nH]c2ccc(F)cc2c1-c1nc2c3cccnc3c3ncccc3c2[nH]1 ... 25.8
Nc1ccn(C2OC(CO)C(O)C2(F)F)c(=O)n1 (stereo unspecified) + Cc1cnc(CNC(=O)c2c(=O)c3ccc(N4CCCN(C)CC4)nc3n3c2sc2ccccc23)cn1 ... 51
Cc1cccc(N(C)C(=O)C2C(O)CCN2c2nc(C)cc(C(F)(F)F)c2C#N)c1 (stereo unspecified) + CN(C)c1ccc(Nc2c3ccc(NC(=O)CCN4CCCC4)cc3nc3cc(NC(=O)CCN4CCCC4)ccc23)cc1 ... 95.7
CC(C)(O)C1CCC(Nc2ccc3ncc(-c4cccc(C(F)(F)F)c4)n3n2)CC1 (stereo unspecified) + CN(C)c1ccc(Nc2c3ccc(NC(=O)CCN4CCCC4)cc3nc3cc(NC(=O)CCN4CCCC4)ccc23)cc1 ... 84.5

Now, please, on to the next molecule.
GET /value?item= O=C(NO)c1cnc(N2CCN(S(=O)(=O)c3ccc4ccccc4c3)CC2)nc1 + CN(C)c1ccc(Nc2c3ccc(NC(=O)CCN4CCCC4)cc3nc3cc(NC(=O)CCN4CCCC4)ccc23)cc1 &field=viability, T/C returns 49.4
